Catalogue of composite z-score values
# MEASURED ON: Left-right determination factor 2 (Homo sapiens)
# EXPERIMENT DESCRIPTION: small molecules binding LEFTY2 protein – biochemical, small-molecule microarray, 635 nm fluorescence scan, primary screen (AID 1110)
# CONDITION PARAMETERS: higher = more signal
Simply state the number, no unit and no words.

Example entries begin here.
COMPOUND	composite z-score
CC(C)NC(=O)[C@@H]1c2ccccc2C(=O)N(C2CCCCC2)[C@H]1c1ccc(CO)cc1	0.0474
CCCNC(=O)[C@@]1(C)c2ccccc2C(=O)N(Cc2cc(F)cc(C(F)(F)F)c2)[C@H]1c1ccc(CO)cc1	-0.742
C=CCC(OC(C)=O)[C@@H]1[C@@H](N(Cc2ccc(-c3ccccc3)cc2)C(=O)c2ccc(C)cc2)c2cc(OCCCO)ccc2N1C(=O)Cc1ccc(OC)cc1 (stereo partly drawn)	0.0181

Find the measured composite z-score of `[N-]=[N+]=NCc1ccccc1[C@@H]1OC(c2ccc(OCCCO)cc2)=N[C@]1(Cc1ccccc1)C(=O)O` with Left-right determination factor 2 (Homo sapiens) as test system. -0.252

Find the measured composite z-score of `C#C[C@H]1Oc2ccccc2S(=O)(=O)N2CCC[C@@H]12` with Left-right determination factor 2 (Homo sapiens) as test system. 0.533

Find the measured composite z-score of `CCCCCCC#C[Si](O[C@H](c1ccccc1)c1cn([C@H](C)c2ccccc2)nn1)(C(C)C)C(C)C` with Left-right determination factor 2 (Homo sapiens) as test system. 0.434

Find the measured composite z-score of C=CCC(OC(C)=O)[C@@H]1[C@@H](N(Cc2cc3ccccc3o2)C(=O)c2ccc(C)cc2)c2cc(OCCCO)ccc2N1C(=O)c1ccc(-c2ccccc2)cc1 (stereo partly drawn) with Left-right determination factor 2 (Homo sapiens) as test system. 0.36

Find the measured composite z-score of `CCCC[C@H]1OB(O)C[C@H]2C1=C(COc1ccccc1)C[C@H]1C(=O)N(Cc3ccccc3)C(=O)[C@H]12` with Left-right determination factor 2 (Homo sapiens) as test system. 0.377

* * *

# MEASURED ON: Torsin-1A (Homo sapiens) (UniProt O14656)
# Sequence (O14656 whole entry, looked up): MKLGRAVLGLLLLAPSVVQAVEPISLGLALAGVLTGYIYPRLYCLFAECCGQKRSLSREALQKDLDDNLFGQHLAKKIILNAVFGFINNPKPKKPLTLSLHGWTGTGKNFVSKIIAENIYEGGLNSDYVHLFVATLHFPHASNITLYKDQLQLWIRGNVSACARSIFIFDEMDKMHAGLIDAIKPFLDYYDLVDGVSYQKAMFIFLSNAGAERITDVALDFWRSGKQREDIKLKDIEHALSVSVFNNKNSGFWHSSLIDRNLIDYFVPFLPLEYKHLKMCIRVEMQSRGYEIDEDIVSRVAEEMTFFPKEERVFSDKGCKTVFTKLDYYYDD
# EXPERIMENT DESCRIPTION: torsin A mutant lysate binding on microarrays – cell lysate, small-molecule microarray, COS7 lysate, 635/667 nm fluorescence, primary screen (AID 1150);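 also: score pools 667 nm emission and signal to noise measuring lysate protein binding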
# CONDITION PARAMETERS: COS7 hTOR1A mutant lysate, 635 nm fluorescence, higher = more signal
Catalogue of composite z-score values
Simply state the number, no unit and no words.

Example entries begin here.
COMPOUND	composite z-score
COc1ccc([Si](C)(C)[C@@H]2[C@@H](CCO)O[C@]3(C(=O)N(Cc4cccc(N(C=O)c5ccccc5)c4)c4ccccc43)[C@H]2C)cc1	-0.004
CO[C@H]1O[C@H](CO)[C@@H](OC(=O)Nc2ccc3c(c2)OCO3)[C@H](OC(=O)Nc2ccc3c(c2)OCO3)[C@H]1OC(=O)Nc1ccc2c(c1)OCO2	1.74
C=CCOC(=O)[C@H]1[C@@H]2C(=O)O[C@@H](c3ccccc3)[C@@H](c3ccccc3)N2[C@@H](c2ccc(OCCOC(=O)[C@H]3C[C@H]4C(=O)N[C@@H](CCCC[N+](C)(C)C)C(=O)N4[C@H]3c3ccc(O)cc3)cc2)[C@]12C(=O)Nc1ccccc12	0.846

Find the measured composite z-score of COc1ccc(C(O)C2C=CC3C(=O)N(c4ccccc4)C(=O)C3N2Nc2ccccc2)c2ccccc12 (configuration not stated) with Torsin-1A (Homo sapiens) (UniProt O14656) as test system. 0.15

Find the measured composite z-score of `CN(C)CCCC[C@@H]1NC(=O)[C@@H]2C[C@H](C(=O)NCCCCCN)[C@H](c3ccc(O)cc3)N2C1=O` with Torsin-1A (Homo sapiens) (UniProt O14656) as test system. 0.901

Find the measured composite z-score of Cc1cc(C)c(C(O)C2C=CC3C(=O)NC(=O)C3N2Nc2ccccn2)c(C)c1 (configuration not stated) with Torsin-1A (Homo sapiens) (UniProt O14656) as test system. 0.736

Find the measured composite z-score of `CC(=O)N1Cc2ccccc2C[C@@]2(N=C(c3ccc(OCCCO)cc3)O[C@H]2c2ccccc2)C1=O` with Torsin-1A (Homo sapiens) (UniProt O14656) as test system. 1.17
